target.system: Albumin (Homo sapiens, UniProt P02768)
Sequence (P02768 whole entry): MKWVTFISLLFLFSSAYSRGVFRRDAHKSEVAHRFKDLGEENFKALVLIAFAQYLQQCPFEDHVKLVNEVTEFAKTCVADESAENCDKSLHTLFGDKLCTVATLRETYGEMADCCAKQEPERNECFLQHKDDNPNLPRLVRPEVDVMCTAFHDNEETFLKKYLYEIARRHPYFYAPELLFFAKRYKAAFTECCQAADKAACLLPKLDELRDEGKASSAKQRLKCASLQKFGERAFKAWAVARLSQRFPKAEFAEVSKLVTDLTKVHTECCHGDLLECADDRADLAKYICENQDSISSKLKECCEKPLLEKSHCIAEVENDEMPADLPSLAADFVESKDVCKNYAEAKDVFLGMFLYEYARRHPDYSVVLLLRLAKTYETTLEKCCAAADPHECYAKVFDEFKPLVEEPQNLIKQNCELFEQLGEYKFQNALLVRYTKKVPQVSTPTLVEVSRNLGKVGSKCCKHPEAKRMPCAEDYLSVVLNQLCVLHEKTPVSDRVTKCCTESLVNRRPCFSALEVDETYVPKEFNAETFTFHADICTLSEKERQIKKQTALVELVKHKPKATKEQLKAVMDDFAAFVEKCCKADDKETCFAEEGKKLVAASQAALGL
assay.text: Binding affinity to human serum albumin assessed as Stern-Volmer association constant at pH 7.4 and 301K by spectrofluorimetry
Type: ADME
settings: isolated protein
reported.endpoint: KSV (M⁻¹)

structure_notation=CCN(CC)Cc1cc(Nc2ccnc3cc(Cl)ccc23)ccc1O.Cl measured=56200

---

target.system: Albumin (Homo sapiens, UniProt P02768)
assay.text: Binding affinity to human serum albumin assessed as modified Stern-Volmer association constant at pH 7.4 and 291K by spectrofluorimetry in presence of warfarin
Type: ADME
settings: isolated protein
reported.endpoint: Ka

structure_notation=CCN(CC)Cc1cc(Nc2ccnc3cc(Cl)ccc23)ccc1O.Cl reported_endpoint=Ka measured="73100 M⁻¹"
